Form field: glass transition temperature (one value per entry).

{"columns": ["compound", "glass transition temperature"],
 "data": [
  ["*Oc1ccc(/C=C2\\CC/C(=C\\c3ccc(OC(=O)c4ccc(/N=C/c5ccc(/C=N/c6ccc(C(*)=O)cc6)cc5)cc4)c(OC)c3)C2=O)cc1OC (repeat unit)", "140.00 °C"],
  ["*CC(*)c1ccc(C)nc1 (repeat unit)", "136.00 °C"],
  ["*C(=O)c1ccc2c(c1)C(=O)N(c1ccc(Oc3ccc(C(=O)c4ccc(Oc5ccc(N6C(=O)c7ccc(*)cc7C6=O)cc5)cc4)cc3)cc1)C2=O (repeat unit)", "252.00 °C"],
  ["*Nc1ccc(NC(=O)CCCCCC(*)=O)cc1 (repeat unit)", "133.00 °C"],
  ["*CC(COC(=O)CCCCCCCCCCN1C(=O)C2C3C=CC(C3)C2C1=O)O* (repeat unit)", "-31.00 °C"]
]}

Quick note, glass transition temperature for *CCCCCOC(=O)O* (repeat unit) landed at -42.9 °C
